Reported relative viability values follow for various compounds
System: HCC-44
Assay: relative viability (nuclei count vs DMSO), 5 days (fraction); higher = more cells survive
Conditions: first compound 0.8 µM
// keep it numeric: no unit symbol after the value

Output relative viability of Oc1nc(-c2ccc(C(F)(F)F)cc2)nc2c1CSCC2 [XAV939] + Cc1cc(Nc2cc(N3CCN(C)CC3)nc(Sc3ccc(NC(=O)C4CC4)cc3)n2)n[nH]1 [Tozasertib] (partner 0.1 µM)
0.996

Output relative viability of C=C1C(=O)O[C@@H](CCCCCCCC)[C@@H]1C(=O)O [C-75] + O=C(CCCCCCC(=O)Nc1ccccc1)NO [Vorinostat] (partner 1 µM)
1.07

API: the following record is the query input.
Output relative viability of C=C1C(=O)O[C@@H](CCCCCCCC)[C@@H]1C(=O)O [C-75] + Nc1nc2[nH]cc(CCc3ccc(C(=O)N[C@@H](CCC(=O)O)C(=O)O)cc3)c2c(=O)[nH]1 [Pemetrexed] (partner 0.2 µM)
0.683

---

Test system: NCI-H1915
Test: relative viability (nuclei count vs DMSO), 5 days (fraction); higher = more cells survive
Conditions: first compound 0.253 µM
Reported relative viability values follow for various compounds

State relative viability on NCI-H1915. Entry: Oc1nc(-c2ccc(C(F)(F)F)cc2)nc2c1CSCC2 [XAV939] + C[C@]1(O)C[C@@H](c2nc(-c3ccc4ccc(-c5ccccc5)nc4c3)c3c(N)nccn32)C1 [Linsitinib] (partner 1 µM)
1.11

State relative viability on NCI-H1915. Entry: C=C1C(=O)O[C@@H](CCCCCCCC)[C@@H]1C(=O)O [C-75] + Cc1nc(Nc2ncc(C(=O)Nc3c(C)cccc3Cl)s2)cc(N2CCN(CCO)CC2)n1 [Dasatinib] (partner 0.075 µM)
0.304

State relative viability on NCI-H1915. Entry: Oc1nc(-c2ccc(C(F)(F)F)cc2)nc2c1CSCC2 [XAV939] + CC1(C)CCC(c2ccc(Cl)cc2)=C(CN2CCN(c3ccc(C(=O)NS(=O)(=O)c4ccc(N[C@H](CCN5CCOCC5)CSc5ccccc5)c(S(=O)(=O)C(F)(F)F)c4)cc3)CC2)C1 [Navitoclax] (partner 0.5 µM)
0.793

State relative viability on NCI-H1915. Entry: Oc1nc(-c2ccc(C(F)(F)F)cc2)nc2c1CSCC2 [XAV939] + N=C(N)NC(=N)NCCc1ccccc1 [Phenformin] (partner 250 µM)
0.258

New cases:
State relative viability on NCI-H1915. Entry: Oc1nc(-c2ccc(C(F)(F)F)cc2)nc2c1CSCC2 [XAV939] + COc1cc2c(Oc3ccc(NC(=O)C4(C(=O)Nc5ccc(F)cc5)CC4)cc3F)ccnc2cc1OCCCN1CCOCC1 [Foretinib] (partner 0.25 µM)
1.11

State relative viability on NCI-H1915. Entry: Oc1nc(-c2ccc(C(F)(F)F)cc2)nc2c1CSCC2 [XAV939] + CC(C)C[C@H](NC(=O)[C@H](Cc1ccccc1)NC(=O)c1cnccn1)B(O)O [Bortezomib] (partner 0.002 µM)
0.974

---

Tested on: UMC-11
Test: relative viability (nuclei count vs DMSO), 5 days (fraction); higher = more cells survive
Conditions: first compound 1 µM
Reported relative viability values follow for various molecules
// keep it numeric: no unit symbol after the value

Output relative viability of NC(=O)Nc1cc(-c2cccc(F)c2)sc1C(=O)N[C@H]1CCCNC1 [AZD7762] + CC(=O)c1c(C)c2cnc(Nc3ccc(N4CCNCC4)cn3)nc2n(C2CCCC2)c1=O [Palbociclib] (partner 0.5 µM)
0.231

API: the following record is the query input.
Output relative viability of NC(=O)Nc1cc(-c2cccc(F)c2)sc1C(=O)N[C@H]1CCCNC1 [AZD7762] + COc1cc2c(Oc3ccc(NC(=O)C4(C(=O)Nc5ccc(F)cc5)CC4)cc3F)ccnc2cc1OCCCN1CCOCC1 [Foretinib] (partner 0.25 µM)
0.384

---

Reported relative viability values follow for various compounds
Test system: BEN
Assay: relative viability (nuclei count vs DMSO), 5 days (fraction); higher = more cells survive
Details: first compound 0.253 µM

// below: answered compounds
State relative viability on BEN. Entry: Oc1nc(-c2ccc(C(F)(F)F)cc2)nc2c1CSCC2 [XAV939] + CC(=O)Nc1cccc(-n2c(=O)n(C3CC3)c(=O)c3c(Nc4ccc(I)cc4F)n(C)c(=O)c(C)c32)c1 [Trametinib] (partner 0.02 µM)
1.01

State relative viability on BEN. Entry: Oc1nc(-c2ccc(C(F)(F)F)cc2)nc2c1CSCC2 [XAV939] + O=C(CCCCCCC(=O)Nc1ccccc1)NO [Vorinostat] (partner 1 µM)
0.587

State relative viability on BEN. Entry: C=C1C(=O)O[C@@H](CCCCCCCC)[C@@H]1C(=O)O [C-75] + CC(C)C[C@H](NC(=O)[C@H](Cc1ccccc1)NC(=O)c1cnccn1)B(O)O [Bortezomib] (partner 0.002 µM)
0.868

State relative viability on BEN. Entry: C=C1C(=O)O[C@@H](CCCCCCCC)[C@@H]1C(=O)O [C-75] + C[C@]1(O)C[C@@H](c2nc(-c3ccc4ccc(-c5ccccc5)nc4c3)c3c(N)nccn32)C1 [Linsitinib] (partner 1 µM)
0.982

New cases:
State relative viability on BEN. Entry: C=C1C(=O)O[C@@H](CCCCCCCC)[C@@H]1C(=O)O [C-75] + Cc1nc(Nc2ncc(C(=O)Nc3c(C)cccc3Cl)s2)cc(N2CCN(CCO)CC2)n1 [Dasatinib] (partner 0.075 µM)
0.271

---

System: NCI-H2087
Assay: relative viability (nuclei count vs DMSO), 5 days (fraction); higher = more cells survive
Conditions: first compound 8 µM
quantity-kind: relative viability
// keep it numeric: no unit symbol after the value

// below: answered compounds
Output relative viability of C=C1C(=O)O[C@@H](CCCCCCCC)[C@@H]1C(=O)O [C-75] + O=C(c1cc(Cc2n[nH]c(=O)c3ccccc23)ccc1F)N1CCN(C(=O)C2CC2)CC1 [Olaparib] (partner 8 µM)
0.423

Output relative viability of C=C1C(=O)O[C@@H](CCCCCCCC)[C@@H]1C(=O)O [C-75] + Cc1cc(Nc2cc(N3CCN(C)CC3)nc(Sc3ccc(NC(=O)C4CC4)cc3)n2)n[nH]1 [Tozasertib] (partner 0.1 µM)
0.305

API: the following record is the query input.
Output relative viability of C=C1C(=O)O[C@@H](CCCCCCCC)[C@@H]1C(=O)O [C-75] + CS(=O)(=O)N1CCN(Cc2cc3nc(-c4cccc5[nH]ncc45)nc(N4CCOCC4)c3s2)CC1 [Pictilisib] (partner 1 µM)
0.859

---

Tested on: NCI-H1915
Assay: relative viability (nuclei count vs DMSO), 5 days (fraction); higher = more cells survive
Settings: first compound 1 µM
quantity-kind: relative viability
// keep it numeric: no unit symbol after the value

// below: answered molecules
Output relative viability of NC(=O)Nc1cc(-c2cccc(F)c2)sc1C(=O)N[C@H]1CCCNC1 [AZD7762] + O=C(CCCCCCC(=O)Nc1ccccc1)NO [Vorinostat] (partner 1 µM)
0.373

Output relative viability of NC(=O)Nc1cc(-c2cccc(F)c2)sc1C(=O)N[C@H]1CCCNC1 [AZD7762] + COc1cc2c(Oc3ccc(NC(=O)C4(C(=O)Nc5ccc(F)cc5)CC4)cc3F)ccnc2cc1OCCCN1CCOCC1 [Foretinib] (partner 0.25 µM)
0.981

Output relative viability of NC(=O)Nc1cc(-c2cccc(F)c2)sc1C(=O)N[C@H]1CCCNC1 [AZD7762] + C[C@@H](Oc1cc(-c2cnn(C3CCNCC3)c2)cnc1N)c1c(Cl)ccc(F)c1Cl [Crizotinib] (partner 1 µM)
0.823

New cases:
Output relative viability of NC(=O)Nc1cc(-c2cccc(F)c2)sc1C(=O)N[C@H]1CCCNC1 [AZD7762] + CC(=O)Nc1cccc(-n2c(=O)n(C3CC3)c(=O)c3c(Nc4ccc(I)cc4F)n(C)c(=O)c(C)c32)c1 [Trametinib] (partner 0.02 µM)
0.271

Output relative viability of NC(=O)Nc1cc(-c2cccc(F)c2)sc1C(=O)N[C@H]1CCCNC1 [AZD7762] + N=C(N)NC(=N)NCCc1ccccc1 [Phenformin] (partner 250 µM)
0.349

Output relative viability of NC(=O)Nc1cc(-c2cccc(F)c2)sc1C(=O)N[C@H]1CCCNC1 [AZD7762] + CCNC(=O)c1noc(-c2cc(C(C)C)c(O)cc2O)c1-c1ccc(CN2CCOCC2)cc1 [Luminespib] (partner 0.01 µM)
0.434

---

Reported relative viability values follow for various compounds
Tested on: BEN
Test: relative viability (nuclei count vs DMSO), 5 days (fraction); higher = more cells survive
Conditions: first compound 0.1 µM
// keep it numeric: no unit symbol after the value

Output relative viability of NC(=O)Nc1cc(-c2cccc(F)c2)sc1C(=O)N[C@H]1CCCNC1 [AZD7762] + CC(C)C[C@H](NC(=O)[C@H](Cc1ccccc1)NC(=O)c1cnccn1)B(O)O [Bortezomib] (partner 0.002 µM)
0.888

Output relative viability of NC(=O)Nc1cc(-c2cccc(F)c2)sc1C(=O)N[C@H]1CCCNC1 [AZD7762] + CC(=O)Nc1cccc(-n2c(=O)n(C3CC3)c(=O)c3c(Nc4ccc(I)cc4F)n(C)c(=O)c(C)c32)c1 [Trametinib] (partner 0.02 µM)
1.09

API: the following record is the query input.
Output relative viability of NC(=O)Nc1cc(-c2cccc(F)c2)sc1C(=O)N[C@H]1CCCNC1 [AZD7762] + CS(=O)(=O)N1CCN(Cc2cc3nc(-c4cccc5[nH]ncc45)nc(N4CCOCC4)c3s2)CC1 [Pictilisib] (partner 1 µM)
0.537
